system: Fab BL3-6 (synthetic (humanized Fab4D5 framework phage library)), PDB:6B14_1+PDB:6B3K_2; assay: filter binding
outcome_measure: pKd
One number for each entry, as −log10 of the molar value.

Qu. Query: pKd; subject: GUCCAGUAGGAACACUAUACUACUGGAUAAUCAAAGACAAAUCUGCCCGAAGGGCUUGAGAACAUCGAAACACGAUGCAGAGGUGGCAGCCUCCGGUGGGUUAAAACCCAACGUUCUCAACAAUAGUGA [WT-BLP]
Ans. 6.92

====

system: Fab clone 18 (synthetic), PDB:6B14_1+PDB:6B3K_2; assay: filter binding
outcome_measure: Kd (nM)
Answers are plain numbers, in nM.

Use the examples below as a reference point.
UGCGACCAUGGUGAGACCCGCCAUGGUCGC [N9RNA1 HP (AM HP)] : 9
GUCCAGUAGGAACACUAUACUACUGGAUAAUCAAAGACAAAUCUGCCCGAAGGGCUUGAGAACAUCGAAACACGAUGCAGAGGUGGCAGCCUCCGGUGGGUUAAAACCCAACGUUCUCAACAAUAGUGA [WT-BLP] : 51

We next turn to a different sequence, shown below.
Qu. Returns the measured Kd for the input sequence. Input: GGCGACCAUGGAAACACCAUGGUCGC [WT-RNA HP (WT BL3-6 HP)]
Ans. 22
